Provenance of the data: paper PMC3695512

Biological target: T1, GST-Hera_RBD (Thermus thermophilus, UniProt O07897 424-510)
T1 sequence: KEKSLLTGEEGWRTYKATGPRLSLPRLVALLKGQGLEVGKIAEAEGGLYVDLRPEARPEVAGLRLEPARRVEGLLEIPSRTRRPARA
Assay: EMSA; 6 uM RNA; 12% glycerol; Anisotropy: 50 mM Tris/HCl pH 7.5, 150 mM NaCl, 5 mM MgCl2 (Fig 2), 25 C, 50 nM RNA; EMSA: same Tris/NaCl, 12% glycerol, 25 C; NMR: 25 mM Bis-Tris/HCl pH 6.0, 50 mM NaCl, 10% D2O, 37 C
Conditions: protein: recombinant; tags: N-terminal GST; label: none (NMR, ITC); 5'-fluorescein (EMSA); hairpin with 5' single strand
Outcome Measure: Kd

GGGUUGGGCUGUUCGCCCAUU (structured_RNA) [21mer] : ~23 µM
